Quick list: pIC50 per entry.
# Assayed target: SSTR5 (Homo sapiens, UniProt P35346)
# Sequence (P35346 whole entry): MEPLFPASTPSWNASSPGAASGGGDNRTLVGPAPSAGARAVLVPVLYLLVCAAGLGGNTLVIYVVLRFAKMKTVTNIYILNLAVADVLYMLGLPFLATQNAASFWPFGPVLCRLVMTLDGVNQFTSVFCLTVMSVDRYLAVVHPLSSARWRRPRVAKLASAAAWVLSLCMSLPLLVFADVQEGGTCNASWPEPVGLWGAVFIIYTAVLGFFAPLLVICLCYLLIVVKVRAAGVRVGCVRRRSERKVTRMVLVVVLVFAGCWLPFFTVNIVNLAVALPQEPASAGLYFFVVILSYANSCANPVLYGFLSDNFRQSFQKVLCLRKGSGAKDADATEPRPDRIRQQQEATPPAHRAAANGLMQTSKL
# Measurement protocol: Functional assay of SSTR5 mediated cyclic AMP production in SSTR5 expressing CHO cells
# Particulars: Table 2; FSK plus SS-28; read-out: SSTR5 (cAMP) IC50
pIC50: −log10 of the molar value.
Measurement kind: pIC50

INSERT INTO measurements (input_smiles, qualifying_sign, meas_value) VALUES
  ('CCOc1cc(CN2CCC3(CC2)CC(=O)N(c2ccc(O)nc2)C3)cc(OCC)c1-c1ccc(F)cc1', '=', 8.51),
  ('CCOc1cc(CN2CCC3(CC2)CC(=O)N(c2ccc(C(=O)O)cc2)C3)cc(OCC)c1OCC(F)(F)F', '=', 7.38),
  ('CCOc1cc(CN2CCC3(CC2)CC(=O)N(CCCC(=O)O)C3)cc(OCC)c1-c1ccc(F)cc1', '=', 7.36),
  ('CCOc1cc(CN2CCC3(CC2)CC(=O)N(c2ccc(C(=O)O)cc2)C3)cc(OCC)c1OCC', '=', 7.09),
  ('CCOc1cc(CN2CCC3(CC2)CC(=O)N(c2ccc(C(=O)O)cc2)C3)ccc1Cl', '=', 7.21),
  ('CCOc1cc(CN2CCC3(CC2)CC(=O)N(Cc2cccc(C(=O)O)c2)C3)cc(OCC)c1-c1ccc(F)cc1', '=', 7.68),
  ('CCOc1cc(CN2CCC3(CC2)CC(=O)N(c2ccc(C(=O)O)cc2)C3)cc(OCC)c1-c1ccc(OC(F)(F)F)cc1', '=', 9.22),
  ('O=C(O)c1ccc(N2CC3(CCN(Cc4cc(OC5CC5)c(-c5ncc(F)cc5F)c(OC5CC5)c4)CC3)CC2=O)cc1', '=', 8.74),
  ('CCOc1cc(CN2CCC3(CC2)CC(=O)N(c2ccc(-c4nnn[nH]4)cc2)C3)cc(OCC)c1-c1ccc(F)cc1', '=', 8.89),
  ('CC(C)Oc1cc(CN2CCC3(CC2)CC(=O)N(c2ccc(C(=O)O)cc2)C3)cc(OC(C)C)c1C#N', '=', 7.82),
  ('CCOc1cc(CN2CCC3(CC2)CC(=O)N(c2cccc(-c4nnn[nH]4)c2)C3)cc(OCC)c1-c1ccc(F)cc1', '=', 8.33),
  ('CCOc1cc(CN2CCC3(CC2)CNC(=O)C3)cc(OCC)c1-c1ccc(F)cc1', '=', 7.28),
  ('O=C(O)c1ccc(N2CC3(CCN(Cc4cc(O)c(-c5ccc(F)cc5)c(O)c4)CC3)CC2=O)cc1', '<', 6.00),
  ('CCOc1cc(CN2CCC3(CC2)CC(=O)N(CCO)C3)cc(OCC)c1-c1ccc(F)cc1', '=', 6.80),
  ('CCOc1cc(CN2CCC3(CC2)CC(=O)N(c2cncc(C(=O)O)c2)C3)cc(OCC)c1-c1ccc(F)cc1', '=', 8.44),
  ('CCOc1cc(CN2CCC3(CC2)CC(=O)N(c2ccc(C(=O)O)nc2)C3)cc(OCC)c1-c1ccc(F)cc1', '=', 8.21),
  ('CCOc1cc(CN2CCC3(CC2)CC(=O)N(c2ccc(-c4n[nH]c(=O)o4)cc2)C3)cc(OCC)c1-c1ccc(F)cc1', '=', 7.47),
  ('CCOc1cc(CN2CCC3(CC2)CC(=O)N(c2ccc(C(=O)O)cc2)C3)cc(OCC)c1-c1cc(F)ccc1F', '=', 9.55),
  ('CCOc1cc(CN2CCC3(CC2)CC(=O)N(c2ccc(C(=O)O)cn2)C3)cc(OCC)c1-c1ccc(F)cc1', '=', 8.33),
  ('CCOc1cc(CN2CCC3(CC2)CC(=O)N(c2cncc(O)c2)C3)cc(OCC)c1-c1ccc(F)cc1', '=', 8.10),
  ('CCOc1cc(CN2CCC3(CC2)CC(=O)N(c2ccc(-c4noc(=O)[nH]4)cc2)C3)cc(OCC)c1-c1ccc(F)cc1', '=', 8.74),
  ('CCOc1cc(CN2CCC3(CC2)CC(=O)N(c2ccc(C(N)=O)cc2)C3)cc(OCC)c1-c1ccc(F)cc1', '=', 7.48),
  ('CCOc1cc(CN2CCC3(CC2)CC(=O)N(c2ccc(C(=O)O)cc2)C3)cc(OCC)c1-c1ccc(C(F)(F)F)cc1', '=', 9.21),
  ('CCOc1ccc(-c2ccc(F)cc2F)c(CN2CCC3(CC2)CC(=O)N(c2ccc(C(=O)O)cc2)C3)c1', '=', 8.14),
  ('CCOc1cc(CN2CCC3(CC2)CC(=O)N(Cc2ccc(F)cc2)C3)cc(OCC)c1-c1ccc(F)cc1', '=', 8.07),
  ('CCOc1cc(CN2CCC3(CC2)CC(=O)N(CC(=O)O)C3)cc(OCC)c1-c1ccc(F)cc1', '=', 6.80),
  ('CCOc1cc(CN2CCC3(CC2)CC(=O)N(c2ccc(C(=O)O)cc2)C3)cc(OCC)c1-c1ccc(F)c(F)c1F', '=', 8.82),
  ('CCOc1cc(CN2CCC3(CC2)CC(=O)N(c2ccccc2S(C)(=O)=O)C3)cc(OCC)c1-c1ccc(F)cc1', '=', 7.89),
  ('CCOc1cc(CN2CCC3(CC2)CC(=O)N(c2cccc(C(N)=O)c2)C3)cc(OCC)c1-c1ccc(F)cc1', '=', 7.80);

Sourced from patent US20120041012A1
